Hello, the source for this data is ChEMBL document CHEMBL4813922, in case you need it.

molecular target: Extracellular serine/threonine protein kinase FAM20C (Homo sapiens); assay: Inhibition of Fam20C (unknown origin) assessed as reduction in inorganic phosphate release in presence of ATP at 10 uM measured by Malachite green phosphate staining based micro plate reader assay relative to control
inhibition: recorded values
# output: bare number, implied unit %

smiles entry	target of assay	inhibition (%)
COc1ccc(Nc2cc(C)nc(Nc3ccc(NS(=O)(=O)c4ccccc4Cl)cc3)n2)cc1	Extracellular serine/threonine protein kinase FAM20C (Homo sapiens)	40
COc1ccc(S(=O)(=O)Nc2ccc(Nc3nc(C)cc(Nc4ccc(OC)c(O)c4)n3)cc2)cc1	Extracellular serine/threonine protein kinase FAM20C (Homo sapiens)	11
Cc1cc(Nc2ccc(F)cc2)nc(Nc2ccc(NS(=O)(=O)c3ccc(C(F)(F)F)cc3)cc2)n1	Extracellular serine/threonine protein kinase FAM20C (Homo sapiens)	24
COc1ccc(Nc2cc(C(F)(F)F)nc(Nc3ccc(NS(=O)(=O)c4ccc(C(F)(F)F)cc4)cc3)n2)cc1	Extracellular serine/threonine protein kinase FAM20C (Homo sapiens)	19
O=S(=O)(Nc1ccc(Nc2nc(Nc3ccc(F)cc3)cc(C(F)(F)F)n2)cc1)c1ccc(C(F)(F)F)cc1	Extracellular serine/threonine protein kinase FAM20C (Homo sapiens)	15

Read the next record carefully.
Q) Entry `COc1ccc(S(=O)(=O)Nc2ccc(Nc3nccc(-c4ccccc4)n3)cc2)cc1` has what inhibition?
A) 10
